Data credit: ChEMBL document CHEMBL5230103

- System: A549
- measurement-description: Cytotoxicity against human A549 cells assessed as inhibition of cell growth by MTT assay
- Type: functional, cell-based
This section presents molecules with their documented IC50 values.
Write it as a number; the unit µM goes unstated.

Completed entries (count: 5):
Data request: Could you please provide reported IC50 for "O=C(CCC(=O)Nc1nnc(-c2ccc(O)cc2)s1)NO" ? Thanks!
Data returned: 14.7

Data request: Give the measured IC50 for "O=C(CCCCCC(=O)N(Cc1ccc(Br)s1)c1ccc(OCCN2CCOCC2)cc1)NO"
Data returned: 0.62

Data request: Please supply the value of reported IC50 for the item "N#Cc1cccc(-c2cn(CCCCCCn3cccc(/C=C/C(=O)NO)c3=O)nn2)c1"
Data returned: 0.6

Data request: For the molecule CC(C)c1ccc(C(C)c2nnc(NC(=O)CCC(=O)NO)s2)cc1 (stereo unspecified) , give its measured IC50 value.
Data returned: 14.7

Data request: Quick one: give measured IC50 for "O=C(CCC(=O)Nc1nnc(-c2ccc(Cl)cc2)s1)NO"
Data returned: 14.7

Let us move to another entry and its IC50.
Data request: Output measured IC50 for this item: "O=C(CCCN1CCN(C(=O)Nc2cccc3ncccc23)CC1)NO"
Data returned: 7.19

* * *

- System: Huh-7
- measurement-description: Cytotoxicity against human Huh-7 cells assessed as inhibition of cell growth by SRB assay
- Type: functional, cell-based
parameter-measured: IC50 (nM)
Express the result in nM but write the number alone.

Data request: Tell me measured IC50 for "CC(C)n1cnc2c(-c3cccc(OCCCCC(=O)NO)c3)nc(N3CCOCC3)nc21" please.
Data returned: 160

* * *

- measurement-description: AUCinfinity in CD1 mouse at 2 mg/kg, iv
- Type: ADME, organism-based
- Parameters: dose 2 mg/kg, route iv
- condition-set: in vivo
parameter-measured: AUC(0-inf) (ng·h/mL)
Give just the numeric value; ng·h/mL need not be written.

Data request: Give AUC(0-inf) for the following compound: O=C(NO)C(c1ccccc1)c1c(-c2ccc3ccccc3c2)[nH]c2ccccc12 (stereo unspecified)
Data returned: 1090

* * *

- measurement-description: Half life in CD1 mouse at 2 mg/kg, iv
- Assay type: ADME, organism-based
- condition-set: in vivo
parameter-measured: half-life (min)
Answer in min, number only, no unit symbol.

Data request: Recall and state the measured half-life for O=C(NO)C(c1ccccc1)c1c(-c2ccc3ccccc3c2)[nH]c2ccccc12 (stereo unspecified) .
Data returned: 99

* * *

Entries annotated with measured IC50
- System: PC-3
- measurement-description: Cytotoxicity against human PC-3 cells assessed as inhibition of cell growth by SRB assay
- Type: functional, cell-based
Please give a number only; it is taken to be in nM.

Data request: Check the records and state IC50 for "CC(C)n1cnc2c(-c3cccc(OCC(=O)NO)c3)nc(N3CCOCC3)nc21"
Data returned: 160

***
Data request: Answer with reported IC50 of "CC(C)n1cnc2c(-c3ccc(OCCCCCC(=O)NO)cc3)nc(N3CCOCC3)nc21"
Data returned: 970

Data request: Identify measured IC50 associated with "CC(C)n1cnc2c(-c3ccc(OCCCCCCCC(=O)NO)cc3)nc(N3CCOCC3)nc21"
Data returned: 970

Data request: Please list IC50 recorded for the molecule "CC(C)n1cnc2c(-c3cccc(COCCCCC(=O)NO)c3)nc(N3CCOCC3)nc21"
Data returned: 160

Data request: Provide measured IC50 value, entry: "CC(C)n1cnc2c(-c3cccc(OCCCCCC(=O)NO)c3)nc(N3CCOCC3)nc21"
Data returned: 160

Data request: Write down IC50 measured for item "CC(C)n1cnc2c(-c3ccc(COCCCCCCC(=O)NO)cc3)nc(N3CCOCC3)nc21"
Data returned: 970

Data request: Note down IC50 recorded for "CC(C)n1cnc2c(-c3ccc(COCCCCCC(=O)NO)cc3)nc(N3CCOCC3)nc21"
Data returned: 970

Data request: State its IC50: "CC(C)n1cnc2c(-c3cccc(COCCCCCCCC(=O)NO)c3)nc(N3CCOCC3)nc21"
Data returned: 160

Data request: Look up and state reported IC50 for "CO/N=C1\CN(Cc2ccc(/C=C/C(=O)NO)cc2)c2ccc(F)cc21"
Data returned: 470

Data request: Assign IC50 to the following record: "CC(C)n1cnc2c(-c3cccc(OCCCCCCC(=O)NO)c3)nc(N3CCOCC3)nc21"
Data returned: 160

Data request: Supply measured IC50 of "CC(C)n1cnc2c(-c3ccc(COCC(=O)NO)cc3)nc(N3CCOCC3)nc21" in your reply.
Data returned: 970

Data request: Recall and state the measured IC50 for "CC(C)n1cnc2c(-c3ccc(OCCCCC(=O)NO)cc3)nc(N3CCOCC3)nc21" .
Data returned: 970

* * *

- test-target: Histone deacetylase
- measurement-description: Inhibition of HDAC (unknown origin)
- Type: protein assay, Homo sapiens
parameter-measured: IC50 (nM)
Give your result in nM as a bare value.

Data request: Report IC50 under test system Histone deacetylase for CC(C)c1ccc(C(C)c2nnc(NC(=O)CCC(=O)NO)s2)cc1 (stereo not given) .
Data returned: 200

Data request: Retrieve IC50 on Histone deacetylase; query "CC(C)n1cnc2c(-c3ccc(COCCCCCC(=O)NO)cc3)nc(N3CCOCC3)nc21"
Data returned: 278

Data request: Answer with IC50 of "CC(C)n1cnc2c(-c3cccc(OCCCCC(=O)NO)c3)nc(N3CCOCC3)nc21" measured for Histone deacetylase.
Data returned: 35

Data request: Jot down IC50 (Histone deacetylase) of "CC(C)n1cnc2c(-c3cccc(OCCCCCCC(=O)NO)c3)nc(N3CCOCC3)nc21" .
Data returned: 35

* * *

- Tested on: Plasmodium falciparum
- measurement-description: Antimalarial activity against erythrocytic stage of chloroquine susceptible Plasmodium falcipuram 3D7 measured after 3 days by HRP2-ELISA
- Format: functional, organism-based
- condition-set: 3D7, 72 h
parameter-measured: pIC50
Formally, pIC50 is defined as -log10 of the concentration c, with c in mol/L.

Data request: Answer with reported pIC50 of COc1cc(NC(C)CCCCCNC(=O)CCC(=O)NO)c2ncccc2c1 (stereo unspecified)
Data returned: 6.52

* * *

The following compounds are shown together with reported IC50 values.
- test-target: Histone deacetylase 3 (Homo sapiens, UniProt O15379)
- Sequence (O15379 whole entry): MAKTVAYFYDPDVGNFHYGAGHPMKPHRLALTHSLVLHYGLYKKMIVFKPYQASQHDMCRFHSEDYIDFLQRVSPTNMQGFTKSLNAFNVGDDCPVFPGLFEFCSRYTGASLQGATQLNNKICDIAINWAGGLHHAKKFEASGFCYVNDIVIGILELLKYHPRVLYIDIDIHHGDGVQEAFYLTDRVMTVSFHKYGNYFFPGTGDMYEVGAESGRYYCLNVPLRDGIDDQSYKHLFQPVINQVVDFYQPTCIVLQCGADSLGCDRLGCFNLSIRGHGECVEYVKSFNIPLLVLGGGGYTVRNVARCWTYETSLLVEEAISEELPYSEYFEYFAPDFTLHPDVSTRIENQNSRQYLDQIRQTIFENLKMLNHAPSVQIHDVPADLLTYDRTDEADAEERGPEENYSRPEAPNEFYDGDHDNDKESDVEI
// units = nM; emit number, no label

Consider the following illustrative entries.
Data request: Report value only: IC50, Histone deacetylase 3 (Homo sapiens, UniProt O15379), "O=C(/C=C/c1ccc(S(=O)(=O)Nc2cc(F)cc(F)c2)cc1)NO"
Data returned: 5.2

Data request: Find IC50 for "O=C(NO)c1cn(C2CCN(C(=O)Cc3ccc4ccccc4c3)CC2)nn1" on Histone deacetylase 3 (Homo sapiens, UniProt O15379) and write it down.
Data returned: 1000

Let's switch to this compound now.
Data request: Give IC50; test system Histone deacetylase 3 (Homo sapiens, UniProt O15379); compound "O=C(CCCN1CCN(C(=O)Nc2cccc3ncccc23)CC1)NO"
Data returned: 4.42

* * *

- Tested on: T47D
- measurement-description: Cytotoxicity against human T47D cells assessed as inhibition of cell growth by MTT assay
- Assay type: functional, cell-based
parameter-measured: IC50 (µM)
API: value field is a number in µM; no unit string.

Data request: Supply measured IC50 of "O=C(CCCCCN1CCN2[C@H](Cc3c([nH]c4ccccc34)[C@H]2c2ccc(Br)cc2)C1)NO" in your reply.
Data returned: 1.5

* * *

- measurement-description: Selectivity index, ratio of CC50 for cytotoxicity against HEK293 cells to IC50 for cytotoxicity against human MCF7 cells
- Type: toxicity, cell-based
- condition-set: HEK293 cells and MCF7 cells, read-out: Ratio CC50/IC50
parameter-measured: selectivity ratio

Data request: Item "O=C(CCCN1CCN(C(=O)Nc2cccc3ncccc23)CC1)NO" : provide selectivity ratio
Data returned: > 8.7

* * *

- measurement-description: Selectivity index, ratio of IC50 for cytotoxicity against human MCF-10A cells to IC50 for cytotoxicity against human MCF7 cells
- Type: toxicity, cell-based
- condition-set: MCF-10A cells and MCF7 cells, read-out: Ratio IC50
parameter-measured: selectivity ratio

Data request: Give me measured selectivity ratio, please, for this compound: "O=C(CCCCCC(=O)N(Cc1ccc(Br)s1)c1ccc(OCCN2CCOCC2)cc1)NO"
Data returned: > 16.2

* * *

- measurement-description: Selectivity index, ratio of IC50 for cytotoxicity against human BEAS-2B cells to IC50 for cytotoxicity against human MCF7 cells
- Type: toxicity, cell-based
- condition-set: BEAS-2B cells and MCF7 cells, read-out: Ratio IC50
parameter-measured: selectivity ratio

Data request: Report measured selectivity ratio; entry is "O=C(CCCCCC(=O)N(Cc1ccc(Br)s1)c1ccc(OCCN2CCOCC2)cc1)NO"
Data returned: > 16.2

* * *

- Test system: HepG2
- measurement-description: Cytotoxicity against human HepG2 cells assessed as inhibition of cell growth by SRB assay
- Assay type: functional, cell-based
parameter-measured: IC50 (nM)
I only need the number, in nM, no unit after it.

Data request: Look up and state reported IC50 for "CC(C)n1cnc2c(-c3cccc(OCCCCC(=O)NO)c3)nc(N3CCOCC3)nc21"
Data returned: 160
